System: S. aureus 16207
MEASUREMENT KIND: MIC

O=C(NCCCCCCNCCCCCCNC(=O)c1cc(Cl)c(Cl)[nH]1)c1cc(Cl)c(Cl)[nH]1 [Compound 15c] = 4 to 8 µM
O=C(NCCCNCCNC(=O)c1cc(I)c[nH]1)c1cc(I)c[nH]1 [Compound 16f] = > 32 µM
O=C(NCCCNCCNC(=O)c1cc(Br)c[nH]1)c1cc(Br)c[nH]1 [Compound 16d] = > 32 µM
CN(C)CCCNC(=O)c1cc(Cl)c(Cl)[nH]1 [Compound 27c] = > 32 µM
O=C(NCCCCCCNCCCCCCNC(=O)c1ccc[nH]1)c1ccc[nH]1 [Compound 15a] = > 32 µM
NCCNCCCNC(=O)c1cc(Br)c[nH]1 = > 32 µM
O=C(NCCCNCCCNCCCNC(=O)c1cc(Br)c[nH]1)c1cc(Br)c[nH]1 [Compound 18d] = 16 to 32 µM
O=C(NCCCNCCCCNCCCNC(=O)c1cc(Cl)c(Cl)[nH]1)c1cc(Cl)c(Cl)[nH]1 [Compound 19c] = 4 to 8 µM
CC(C)(C)OC(=O)NCCCNC(=O)c1cc(Cl)c(Cl)[nH]1 [Compound 28c] = > 32 µM
CN(C)CCCNC(=O)c1cc(Br)c(Br)[nH]1 [Compound 27e] = > 32 µM
O=C(NCCCNCCCCNCCCNC(=O)c1cc(Cl)c[nH]1)c1cc(Cl)c[nH]1 [Compound 19b] = > 32 µM
O=C(NCCCNCCCCNCCCNC(=O)c1cc(Br)c[nH]1)c1cc(Br)c[nH]1 [Compound 19d] = 16 to 32 µM
O=C(NCCCCNC(=O)c1cc(Cl)c(Cl)[nH]1)c1cc(Cl)c(Cl)[nH]1 [Compound 12c] = > 32 µM
CC(C)(C)OC(=O)NCCCNC(=O)c1ccc[nH]1 [Compound 28a] = > 32 µM
O=C(NCCCCNCCCNC(=O)c1cc(Br)c[nH]1)c1cc(Br)c[nH]1 [Compound 17d] = > 32 µM
O=C(NCCNCCNC(=O)c1ccc[nH]1)c1ccc[nH]1 [Compound 13a] = > 32 µM
O=C(NCCCNCCCNC(=O)c1cc(I)c[nH]1)c1cc(I)c[nH]1 [Compound 14f] = > 32 µM
O=C(NCCCCNCCCNC(=O)c1cc(Cl)c(Cl)[nH]1)c1cc(Cl)c(Cl)[nH]1 [Compound 17c] = > 32 µM
